# test description: yeast display, Sf9 membrane polyspecificity reagent, FACS + sequencing; frameworks hold sequencing errors
property: polyreactivity (PSR sort gate)

QVQLVESGGGLVQAGGSLRLSFAASGSTFYVYPMGWYRQAPGKERELVAAITDSGGSTYADSVKGRFTISRDNAMNTVYLQFNSLKPEASAVYADSTFYWYYYYWGQGPQVTVSS low polyreactivity
QVQLVESGGGLVQAGGSLRVSCAASGIIFDGNAMGWYRQAPGKERELVAAITASGGSTHYADSVKGRFTISRDNAKNTVYLQMNSLKPEDTAVYYCNKRSRTTGDYDYWGQGTHVTVSS low polyreactivity

###

# test description: yeast display, Sf9 membrane polyspecificity reagent, FACS + sequencing; frameworks hold sequencing errors
property: polyreactivity (PSR sort gate)

QVQLVESGGGLVQAGGSLRLSCAATGFTFRTYAMGWYRQAPGKERELVAAITVSGGTYYADSVKGRFTITRDNAKNSFYFQMISLKPEDTAVYYCTAKRFRTGFDYWGQGTQVTVSS low polyreactivity
QVQLVESGGGLVQAGGSLRLSCAASGRIFWSYAMGWYRPAPGKERELVAAIRSGGTTDYADSVKGRFTISRDNAKNTVYLQMNSLKPEDTAVYYCNREYRGAINYIYYYWGQGTQVTVSS low polyreactivity
QVQLVESGGGLVQAGGSLRLSCAASGITLRRNAMGWYRQAPGKERELVAAISKSGGRTYYADSVKGRFTISRDHAKNTVYLQMNSLKPEDTAVYYCAADVPWAASDYWGQGTQVTVSS high polyreactivity
QVQLVESGGGLVQAGGSLRLSCAASGSISWVYAMGWYRQAPGKERELVAAISNSGGSTYYADSVKGRFTISRDNAKNTVYLQMNSLKPEDTAVYYCAADGYFYYSAFWASPYEYWGQGTQVTVSS high polyreactivity
QVQLVESGGGLVQAGGSLRLTCADSGNILLFNAMGWYRQAPGKERELVATINQSGGRTYYADSVKGRFTISRDNAKNTVYLQMNSLKPEDTAVYYCNAERHPYYYWHTQRLDYWGQGTQVTVSS low polyreactivity
QVQLVESGGGLVQAGGSLRLSCAASGSTISGYAMGWYRQAPGKERELVATISRGGSTNYADSVKGRFTISRDNAKNTVYLQMNSLKPEDTAVYYCAAQTYVWWVKYHSWGQGTQVTVSS low polyreactivity
QVQLVESGGGLVQAGGSLRLSCAASGSTFNQNAMGWYRQATGKERELVAAITVDGSSTYYADSVKGRFTISRDNAKNTVYLQMNSLKPEDTAVYYCAAGYSARSSGYTGGYDYWGQGTQVTVSS high polyreactivity
QVQLVESGGGLVQAGGSLRLSCAASGFIFPRNAMGWYRQAPGKERELVAGITRGGSTNYADSVKGRFTISRDNAKNTVYLQMNSLKPEDTAVYYCAAKSYNYNRPYGWREYDYWGQGTQVTVSS high polyreactivity

Please supply polyreactivity (PSR sort gate) for each of the following items, keeping them in order.
1. QVQLVESGGGLVQAGGSLRLSCAASGRTFYIYAMGWYRQAPGKERELVAAITRGGGSTSYADSVKGRFTISRDNAKNTVYLQMNSLKPEDTAVYYCAARYYFRWRRYDYWGQGTQVTVSS
2. QVQLVESGGGLVQAGGSLRLSCAASGSTFYSYAMGWYRQAPGKERELVADIDWSGGSTYYADSVKGRFTISRDNAKNTVYLQMNSLKPEDTAVYYCNAERGATGYYVTGDDYWGQGTQVTVSS
3. QVQLVESAGGLVQAGGSLRLSCAASGSISAGNAMGWNRQAPGKERELVAAISGSGGSTYYADSVKGRFTISRYNAKNSVDLQMKSLKPEDTAVYYCAARGGYRLRYIPYVRYDYWGEGTQVTVSS

Response:
1. high polyreactivity
2. low polyreactivity
3. high polyreactivity

###

# test description: yeast display, Sf9 membrane polyspecificity reagent, FACS + sequencing; frameworks hold sequencing errors
property: polyreactivity (PSR sort gate)

Reference set, count: 4
QVQLVESGGGLVQAGGSLRLSCAASGFIFYKYAMGWYRQAPGKEREFVAAITWSGGNTYYADSVKGRFTISRDNAKNTVYLQMNSLKPEDTAVYYCAARDSKWGQGTQVTVSS low polyreactivity
QVQLVESGGGLVQAGGSLRLSCAASGSIFTFYAMGWYRQAPGKERELVAAISYGGGITYYADSVKGRFTISRDNAKISVYLQMNSLIPEDSAVYYCAADDGYYNLYFDYDFWGQGTQLTVSS low polyreactivity
QVQLVESGGGLVQAGGSHRLSCAASGRIFRVYVMGWYRQAPGKEREFVAAISRRGSRTYADSVKGRFTISRDNAKNTVYLLMNSLKTEDTAVYYWAAECGYQAHPGQGDYWGQGTQVTVSS high polyreactivity
QVQLVESGGGLVQAGGSLRLSCAASGSTFEYNAMGWYRQAPGKERELVASSTNYADSVKGRFTISRDNAKNTVYLQMNSLKPEDTAVYYCAREQGVNRNHDYWGQGTQGTVSS low polyreactivity

Please state, for each entry, its recorded polyreactivity (PSR sort gate).
1. QVQLVESGGGLVQAGGSLRLSCAASGRIFYGYAMGWYRQAPGKERELVAGISYRGARTYYADSVKARFTISRDNAKNTVYLQMNSLKPEDTAVYNCNAVPYYPFAFGALDYSGQGTQVTVSS
2. QDQLVESGGGLVQAGGSLRLICAASASTFTRYAMGWYRQAPGKERELVACITGRGGSTYYADSVKGRFPISRDYAKNTVYLQMNCLKPEDTAVYYCARAEGKCPYSRYWPYRGGYDYWGQGTQVTRSS
3. QVQLVESGGCLVQAGGSLRLSCDAYGSTFDDNAMGWYRQAPGKERELVAGISTNGGSTSYADSVKGRFTISRDNAKNTVYLQMNSLKPEDTAVYYCAKGLYVHFDYWGQGTQVTVSS
4. QVQLVESGGGLVQAGGSLRLSCAASGRTFSGYAMGWYRQAPGKERELVAAITNRGGTYYADSVKGRFTISRDNAKNTVYVQMNSLKPEDTAVYSCAAYKYYARWVRGYDSWGQGTQVTVSS
5. QVQLVESGGGLVQAGGSLRLSCAASGNTFTGYAMGWYREAPGKERELVAAITRSGRTYYADSVKGRFTISRDNAKNTVYLQMTSLKPEDTAVYYCAADRRYVKYYYSGQGTQVTVSS
6. QVQLVESGGGLVQAGGSLRLSCAASGFIFRYYAMGWYRQAPGKERELVAAITRGGSTYYADSVKGRFTISRDNAKNTVYLQMNSLKPEDTAVYDCAARLYTQYYYWGQGTQVTVSS
7. QVQLVESGGGLVQAGGSLRLSCAASGSTIPSYAMGWYRQAPGKERELVASITYSDGTTRYAYSVKGRFTISRDNAKNTVYLQMNSLKPEDTAVYYCNAVYYREGMDYWGQGTQVTVSS

Response:
high polyreactivity
high polyreactivity
low polyreactivity
high polyreactivity
high polyreactivity
high polyreactivity
low polyreactivity

###

# test description: yeast display, Sf9 membrane polyspecificity reagent, FACS + sequencing; frameworks hold sequencing errors
property: polyreactivity (PSR sort gate)

Below, each entry is followed by its recorded polyreactivity (PSR sort gate) result.
QVQLEESGGGLVQAGGSLRISCAASGRTFNYNAIGWYRQAPGKERELVAAITSGGRTNYADSVKGRFTISRDNAKNTVYLQMNSLKPEDTAVYYCATEYYRYRWVGAFRYPVYYWGQGTQVTVSS low polyreactivity
QVQLVESGGGLVQAGGSLRLSCAASGSIFVSNAMGWYRQAPGKERELVAAITSSGSTDYADSVKGRFTISRDNAKNTVYLQMNSLKPDDTAVYYCAAESDHTFFLWSLNDSWGQGTQVTVSS low polyreactivity
QDQLVESGGGLVQAGGSLRLSCAASGFTFRAYTMGWYRQAPGKERELVAAITYSGGRTYYADSVKGRFTISRDNAKKTVNLQMNSLNPEDTAVYYCAKRGWALSEYDYWGQGTQVTVSS high polyreactivity
QVQLVESGGGLVQAGGSLRLSCAASGFIFGYNGMGWYRQAPGKERELVAGITYSDGSTYYADSVKGRFTISRDNAKNTVYLQMNSLKPEDTAVYYCAVDVIYYWAEDYDYWGQGTQVTVSS low polyreactivity

Consider now this further sequence.
get_value(item= QVQLVESGGGLVQAGGSLRLSCAASGSTFGRNAMGWYRQAPGKERELVASISWGGGSTYYADSVKVRFTISRDNAKNNVYLQMNSLKPEDTAVYYCAAGLAYWYWRGYDYWGQGTQVTVSS , readout=polyreactivity (PSR sort gate)) returns high polyreactivity

###

# test description: yeast display, Sf9 membrane polyspecificity reagent, FACS + sequencing; frameworks hold sequencing errors
property: polyreactivity (PSR sort gate)

QVQLVESGGGIVQAGGSLRLSCPASGSIFDTYAMGWYRPAPGKEREMVASWSGGSTYYADSVKGRFTISRDNAKNTVYLQMISLKPEDTAVDYCAKDYYVQPPGTRDDYWGQGSQVTVSS low polyreactivity
QVQLVESAGGLVQAGGILRLSCAASGSIFVGYDMGWSRQAPGKERELVAAITSSGGGSTYYADSVKGRFTISRDNAKNTVYLQMNSLKPEDTAVYYCAARTSLWWFLKYDYWGQGTQVTVSS low polyreactivity
